src = patent US9115092B2

target of assay: PI3Kα (wild-type), P110/P85α (Homo sapiens, UniProt P42336)
Sequence (P42336 whole entry): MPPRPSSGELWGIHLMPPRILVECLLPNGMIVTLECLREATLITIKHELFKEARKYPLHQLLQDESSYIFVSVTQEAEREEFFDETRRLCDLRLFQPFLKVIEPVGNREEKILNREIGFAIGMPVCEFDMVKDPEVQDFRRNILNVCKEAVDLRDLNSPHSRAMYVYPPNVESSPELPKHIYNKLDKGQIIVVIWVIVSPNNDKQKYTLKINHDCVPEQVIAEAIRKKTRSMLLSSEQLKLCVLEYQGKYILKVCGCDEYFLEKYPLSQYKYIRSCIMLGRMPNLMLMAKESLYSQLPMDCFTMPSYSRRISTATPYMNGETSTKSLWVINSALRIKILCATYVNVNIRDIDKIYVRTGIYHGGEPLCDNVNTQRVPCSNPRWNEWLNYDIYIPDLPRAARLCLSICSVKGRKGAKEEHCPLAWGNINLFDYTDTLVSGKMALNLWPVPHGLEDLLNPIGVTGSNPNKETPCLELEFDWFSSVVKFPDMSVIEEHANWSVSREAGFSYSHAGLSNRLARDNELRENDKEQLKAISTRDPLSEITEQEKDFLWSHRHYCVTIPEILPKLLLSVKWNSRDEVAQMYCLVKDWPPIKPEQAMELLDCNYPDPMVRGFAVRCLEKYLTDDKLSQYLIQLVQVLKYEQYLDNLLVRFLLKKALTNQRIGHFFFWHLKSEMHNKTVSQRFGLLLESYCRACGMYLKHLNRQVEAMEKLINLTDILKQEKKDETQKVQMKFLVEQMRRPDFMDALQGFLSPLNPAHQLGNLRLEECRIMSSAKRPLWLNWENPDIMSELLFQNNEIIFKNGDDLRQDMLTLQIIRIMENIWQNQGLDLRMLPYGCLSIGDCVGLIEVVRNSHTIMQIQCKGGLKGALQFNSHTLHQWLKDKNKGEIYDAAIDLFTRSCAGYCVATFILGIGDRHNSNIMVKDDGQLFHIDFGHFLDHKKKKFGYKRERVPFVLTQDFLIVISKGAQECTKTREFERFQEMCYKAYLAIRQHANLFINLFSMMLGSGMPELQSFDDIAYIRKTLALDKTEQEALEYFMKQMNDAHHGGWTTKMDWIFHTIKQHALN
Sequence (P27986 whole entry partner): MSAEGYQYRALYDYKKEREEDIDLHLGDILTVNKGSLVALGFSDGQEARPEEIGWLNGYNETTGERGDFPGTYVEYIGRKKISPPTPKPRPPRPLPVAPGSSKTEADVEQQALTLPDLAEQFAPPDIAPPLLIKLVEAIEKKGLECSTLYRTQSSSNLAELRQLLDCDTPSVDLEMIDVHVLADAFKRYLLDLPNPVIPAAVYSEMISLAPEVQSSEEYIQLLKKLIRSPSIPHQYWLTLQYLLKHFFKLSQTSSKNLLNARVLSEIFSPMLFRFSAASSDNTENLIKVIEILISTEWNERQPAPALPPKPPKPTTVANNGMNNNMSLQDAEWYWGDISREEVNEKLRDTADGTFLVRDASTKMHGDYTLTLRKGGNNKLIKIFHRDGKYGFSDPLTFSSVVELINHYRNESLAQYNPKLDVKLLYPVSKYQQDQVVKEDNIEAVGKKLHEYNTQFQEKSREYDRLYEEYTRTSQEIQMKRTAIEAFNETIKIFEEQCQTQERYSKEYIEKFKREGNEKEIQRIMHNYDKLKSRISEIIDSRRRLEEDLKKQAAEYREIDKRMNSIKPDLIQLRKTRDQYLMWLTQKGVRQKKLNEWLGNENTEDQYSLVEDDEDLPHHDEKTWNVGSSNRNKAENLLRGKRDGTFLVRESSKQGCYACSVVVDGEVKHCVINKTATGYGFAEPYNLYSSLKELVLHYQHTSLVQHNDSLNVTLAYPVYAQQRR
experiment: PI3 Kinase TR-FRET assay, PI3Kα (wild-type)
Experimental: The ability of compounds of the invention to inhibit PI3K activity was determined in a homogeneous TR-FRET assay using a PI3K assay kit (Millipore, USA; cat #33-016) according to manufacturer's instructions. […] The PIP3 product is detected by displacement of biotin-PIP3 from an energy transfer complex consisting of Europium labeled anti-GST monoclonal antibody, a GST-tagged PH domain, biotinylated PIP3 and Streptavidin-APC. […]
measurement label: IC50

[
  {
    "molecule": "CN(C)C(=O)c1ccc(NC(=O)Nc2ccc(-c3nc(N4CCOCC4)c4ccc(-c5cccs5)cc4n3)cc2)cc1",
    "IC50": "< 50 nM"
  }
]

For each of the items listed, what is its IC50?
1. CN(C)C(=O)c1ccc(NC(=O)Nc2ccc(-c3nc(N4CCOCC4)c4ccc(-c5ccccn5)cc4n3)cc2F)cc1
2. Cc1ncccc1-c1ccc2c(N3CCOCC3)nc(-c3ccc(NC(=O)Nc4ccc(C(=O)N(C)C)cc4)cc3F)nc2c1
3. CN(C)C(=O)c1ccc(NC(=O)Nc2ccc(-c3nc(N4CCOCC4)c4ccc(-c5ccc(C(C)(C)O)o5)cc4n3)cc2)cc1
4. O=C(Nc1ccc(C(=O)N2CCC(O)C2)cc1)Nc1ccc(-c2nc(N3CCOCC3)c3ccc(-c4cncnc4)cc3n2)cc1 (stereo not shown)

**Result**
1. 50 to 200 nM
2. < 50 nM
3. < 50 nM
4. 201 to 10000 nM

For each of the items listed, what is its IC50?
1. CN(C)CCNC(=O)c1ccc(NC(=O)Nc2ccc(-c3nc(N4CCOCC4)c4ccc(-c5cncnc5)cc4n3)cc2)cc1
2. CC(O)c1ccc(-c2ccc3c(N4CCOCC4)nc(-c4ccc(NC(=O)Nc5ccc(C(=O)N(C)C)cc5)c(F)c4)nc3c2)o1 (stereo not shown)
3. CN(C)C(=O)c1ccc(NC(=O)Nc2ccc(-c3nc(N4CCOCC4)c4ccc(-c5cncnc5)cc4n3)c(F)c2)cn1

**Result**
1: 50 to 200 nM; 2: < 50 nM; 3: 201 to 10000 nM

For each of the items listed, what is its IC50?
1. CN(C)C(=O)c1ccc(NC(=O)Nc2ccc(-c3nc(N4CCOCC4)c4ccc(-c5cccnc5)cc4n3)cc2)c(F)c1
2. CN(C)C1CCN(C(=O)c2ccc(NC(=O)Nc3ccc(-c4nc(N5CCOCC5)c5ccc(-c6cncnc6)cc5n4)cc3F)cc2)C1 (stereo in doubt)

**Result**
["< 50 nM", "< 50 nM"]

----------
Test system: pS6RP(S235/236), PC3 cells
experiment: In-cell Western assay, pS6RP(S235/236) in PC3 cells
Type: cell-based, human
assay context: In-cell Western
measurement label: IC50

[
  {
    "compound": "CN(C)C(=O)c1ccc(NC(=O)Nc2ccc(-c3nc(N4CCOCC4)c4ccc(-c5ccco5)cc4n3)cc2)cc1 [Example 80]",
    "measurement label": "IC50",
    "reported": "< 100 nM"
  },
  {
    "compound": "CN(C)C1CCN(C(=O)c2ccc(NC(=O)Nc3ccc(-c4nc(N5CCOCC5)c5ccc(-c6cncnc6)cc5n4)cc3)cc2)C1 (stereo in doubt)",
    "measurement label": "IC50",
    "reported": "201 to 10000 nM"
  }
]

**Query** Report IC50 for CN(C)C(=O)c1ccc(NC(=O)Nc2ccc(-c3nc(N4CCOCC4)c4ccc(-c5ccco5)cc4n3)cc2)cc1 [Example 51] please.
**Result** 501 to 5000 nM
